- Test system: Escherichia coli
- test-details: Antimicrobial activity against Escherichia coli ATCC 25922 assessed as reduction in bacterial growth incubated for 20 hrs by broth microdilution analysis
- Type: functional
Reported MIC values are given for each entry in this list.
Note: unit µM is implicit; provide only the numeric part.

Give reported MIC for COc1ccc2nccc(OC[C@H]3CC[C@H](NC(=O)c4cc(F)c(Cl)c(F)c4)CC3)c2n1 (Escherichia coli)
277

Write MIC of COc1ccc2nccc(OC[C@H]3CC[C@H](NCc4cc(F)c(Br)c(F)c4)CC3)c2n1 ; system used: Escherichia coli
8.12

---

- experimental-system: DNA gyrase (Staphylococcus aureus, UniProt P0A0K8+P20831)
- Sequence (P0A0K8 whole entry): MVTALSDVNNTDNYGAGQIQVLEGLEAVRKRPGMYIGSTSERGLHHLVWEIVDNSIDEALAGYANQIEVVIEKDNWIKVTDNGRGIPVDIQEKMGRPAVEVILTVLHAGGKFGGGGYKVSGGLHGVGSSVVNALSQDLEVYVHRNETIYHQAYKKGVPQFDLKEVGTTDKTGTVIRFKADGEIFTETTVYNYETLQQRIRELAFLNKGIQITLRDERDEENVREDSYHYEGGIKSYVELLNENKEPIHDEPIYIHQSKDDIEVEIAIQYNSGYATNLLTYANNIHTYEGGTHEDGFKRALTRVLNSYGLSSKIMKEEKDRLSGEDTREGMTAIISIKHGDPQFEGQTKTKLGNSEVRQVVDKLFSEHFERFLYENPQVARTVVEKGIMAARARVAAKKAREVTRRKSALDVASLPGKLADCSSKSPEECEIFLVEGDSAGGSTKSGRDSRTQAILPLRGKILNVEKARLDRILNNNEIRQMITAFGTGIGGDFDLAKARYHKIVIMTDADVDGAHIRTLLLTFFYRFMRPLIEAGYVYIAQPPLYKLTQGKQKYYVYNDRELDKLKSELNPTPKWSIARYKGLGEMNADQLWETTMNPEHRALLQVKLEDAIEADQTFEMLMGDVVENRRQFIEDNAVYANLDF
- Sequence (P20831 whole entry): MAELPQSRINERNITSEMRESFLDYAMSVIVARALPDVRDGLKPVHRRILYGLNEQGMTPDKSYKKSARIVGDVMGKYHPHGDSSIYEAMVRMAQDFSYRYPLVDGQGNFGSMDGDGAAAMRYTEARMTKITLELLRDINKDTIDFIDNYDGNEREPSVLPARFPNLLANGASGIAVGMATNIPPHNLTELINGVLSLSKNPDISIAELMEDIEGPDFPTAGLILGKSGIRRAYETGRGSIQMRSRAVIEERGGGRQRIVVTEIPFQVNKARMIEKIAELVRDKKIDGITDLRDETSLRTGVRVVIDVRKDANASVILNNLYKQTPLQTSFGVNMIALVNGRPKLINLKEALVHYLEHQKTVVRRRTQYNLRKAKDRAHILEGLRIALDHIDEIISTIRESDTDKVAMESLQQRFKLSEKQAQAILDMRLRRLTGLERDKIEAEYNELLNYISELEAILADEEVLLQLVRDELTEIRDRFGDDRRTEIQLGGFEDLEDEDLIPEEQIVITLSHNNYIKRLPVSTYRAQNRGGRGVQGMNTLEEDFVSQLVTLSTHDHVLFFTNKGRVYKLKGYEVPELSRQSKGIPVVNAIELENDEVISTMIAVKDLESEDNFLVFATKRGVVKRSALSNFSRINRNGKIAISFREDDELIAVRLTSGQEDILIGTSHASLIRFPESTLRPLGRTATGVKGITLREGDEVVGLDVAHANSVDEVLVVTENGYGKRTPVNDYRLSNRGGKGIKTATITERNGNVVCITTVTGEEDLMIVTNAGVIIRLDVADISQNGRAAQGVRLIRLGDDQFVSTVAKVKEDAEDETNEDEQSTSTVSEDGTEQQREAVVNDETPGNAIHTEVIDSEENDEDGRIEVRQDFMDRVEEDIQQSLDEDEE
- test-details: Inhibition of Staphylococcus aureus DNA gyrase supercoiling incubated for 30 mins in presence of ATP
reported-metric: pIC50
Scale: negative log10 of molar concentration, which is what pIC50 denotes.

These solved cases illustrate the format of a correct answer.
- COc1ccc2nccc(CCN3CCC(NC(=O)c4cc(F)c(Br)c(F)c4)CC3)c2n1: 6.97
- COc1ccc2nccc(CCN3CCC(NC(=O)c4ccc(I)c(F)c4)CC3)c2n1: 6.94

Next:
Quote pIC50 reported for COc1ccc2nccc(OC[C@@H]3CC[C@@H](NC(=O)c4ccc(I)c(F)c4)CO3)c2n1 please.
6.57

---

Catalogue of selectivity ratio readings, one per entry.
- System: hERG
- test-details: Selectivity index, ratio of IC50 for inhibition of hERG fluorescence polarization assay to MIC for antimicrobial activity against Staphylococcus aureus ATCC 29213 assessed as reduction in bacterial growth
- Format: toxicity
- experimental-parameters: human; read-out: Selectivity Index

Would you please look over these solved cases?
* COc1ccc2nccc(OC[C@H]3CC[C@H](NC(=O)c4cc(F)c(Br)c(F)c4)CC3)c2n1 | ≥ 0.119
* COc1ccc2nccc(CCN3CCC(NC(=O)c4ccc(I)c(F)c4)CC3)c2n1 | 1.65

Okay, next one:
Provide one value: measured selectivity ratio of COc1ccc2nccc(OC[C@H]3CC[C@H](NC(=O)c4ccc(I)c(F)c4)CC3)c2n1
≥ 0.125

---

- Tested on: Staphylococcus aureus
- test-details: Antimicrobial activity against multidrug-resistant Staphylococcus aureus assessed as reduction in bacterial growth incubated for 20 hrs by broth microdilution analysis
- Type: functional
reported-metric: MIC (µM)
Write the answer as a number in µM, unit excluded.

Examples from the recorded data:
* COc1ccc2nccc(CCN3CCC(NC(=O)c4ccc(I)c(F)c4)CC3)c2n1 | 0.234
* COc1ccc2nccc(OC[C@@H]3CC[C@@H](NCc4cc(F)c(Br)c(F)c4)CO3)c2n1 | 0.135
* COc1ccc2nccc(OC[C@@H]3CC[C@@H](NC(=O)c4cc(F)c(Br)c(F)c4)CO3)c2n1 | 0.124

Report MIC for COc1ccc2nccc(OC[C@H]3CC[C@H](NCc4cc(F)c(Br)c(F)c4)CC3)c2n1
0.254

For the molecule COc1ccc2nccc(C(O)C[C@H]3CC[C@H](NCc4cc(F)c(Br)c(F)c4)CC3)c2n1 (some centres not stated) , report MIC.
0.016

Look up MIC of COc1ccc2nccc(CCN3CCC(NC(=O)c4cc(F)c(Cl)c(F)c4)CC3)c2n1 and report it.
0.271

Give MIC for COc1ccc2nccc(OC[C@@H]3CC[C@@H](NC(=O)c4ccc(I)c(F)c4)CO3)c2n1
238

Please give measured MIC of the following entry: COc1ccc2nccc(CCN3CCC(NC(=O)c4cc(F)c(Br)c(F)c4)CC3)c2n1
0.125

# return recorded MIC for input COc1ccc2nccc(OC[C@@H]3CC[C@@H](NC(=O)c4cc(F)c(Cl)c(F)c4)CO3)c2n1
0.269
